B1: TRIM55 (parent)
chain: YLPTRGGTTMASGGRFRCPSCRHE

Variants of: B1
Test: protein stability index of a GFP-peptide fusion (GPS, HEK-293T) (PSI 1-6); higher = more stable;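 also: lentivirally expressed fusions sorted by FACS into six bins by GFP to DsRed ratio, PSI derived from sequencing read proportions per bin multiplied by bin number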
Settings: c terminus: a fixed tail appended
observed-property: protein stability index
Answer as a number with no unit attached.

Look over these answered cases.
>>> df
   mutation_annotation  numeric_value
0                 R15K           2.05
1                 A11Q           1.96
2                  P3V           1.97
3                 E24K           2.04
4                  L2E           2.98
5                 P19Y              2
6                 A11M           1.18
7                 F16S           3.94
8                 M10A           2.85
9                 R15P           1.49

What the record says about M10I : protein stability index is 2.27

What the record says about S20H : protein stability index is 2.13

What the record says about G6D : protein stability index is 2.45

What the record says about G13D : protein stability index is 2.37

What the record says about R15T : protein stability index is 2.53

What the record says about G13A : protein stability index is 2.47
